biological target: eeAChE (AChE from Electrophorus electricus) (Electrophorus electricus, UniProt O42275); test: biochemical; settings: [S] = 121 µM; mean ± SD
Sequence (O42275 24-633): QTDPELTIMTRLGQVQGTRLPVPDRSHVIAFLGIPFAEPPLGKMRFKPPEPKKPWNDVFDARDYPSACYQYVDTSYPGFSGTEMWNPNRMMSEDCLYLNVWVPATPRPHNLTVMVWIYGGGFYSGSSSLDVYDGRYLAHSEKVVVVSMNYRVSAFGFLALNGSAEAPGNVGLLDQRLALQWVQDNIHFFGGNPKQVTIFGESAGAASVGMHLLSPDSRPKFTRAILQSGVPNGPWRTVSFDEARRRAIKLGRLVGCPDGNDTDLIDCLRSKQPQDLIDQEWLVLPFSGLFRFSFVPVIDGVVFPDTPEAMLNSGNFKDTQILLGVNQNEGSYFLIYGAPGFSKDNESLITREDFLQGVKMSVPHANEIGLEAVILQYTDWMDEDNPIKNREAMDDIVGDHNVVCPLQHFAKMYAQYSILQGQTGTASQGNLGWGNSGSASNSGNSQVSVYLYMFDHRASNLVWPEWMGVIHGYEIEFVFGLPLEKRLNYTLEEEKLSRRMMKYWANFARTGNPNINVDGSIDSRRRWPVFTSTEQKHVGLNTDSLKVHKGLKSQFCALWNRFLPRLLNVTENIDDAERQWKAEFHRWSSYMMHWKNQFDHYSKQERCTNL
pIC50: −log10 of the molar value.
measure: pIC50

Here's what some known entries look like.
- compound: "OC[C@@H]1[C@@H](O)[C@H](O)[C@@H](O)CN1CCCCCCCCCCn1cc(Cn2nnc3ccccc32)nn1 [Compound 12d]"
  measurementTarget: "eeAChE (AChE from Electrophorus electricus) (Electrophorus electricus, UniProt O42275)"
  pIC50: "< 3.30"
- compound: "OC[C@@H]1[C@@H](O)[C@H](O)[C@@H](O)CN1CCCn1cc(Cn2nnc3ccccc32)nn1 [Compound 12a]"
  measurementTarget: "eeAChE (AChE from Electrophorus electricus) (Electrophorus electricus, UniProt O42275)"
  pIC50: "< 3.30"
- compound: "OC[C@@H]1[C@@H](O)[C@H](O)[C@@H](O)CN1CCCCCCn1cc(Cn2nnc3ccccc32)nn1 [Compound 12b]"
  measurementTarget: "eeAChE (AChE from Electrophorus electricus) (Electrophorus electricus, UniProt O42275)"
  pIC50: 4.19

Moving on to the next compound.
Lab note: OC[C@@H]1[C@@H](O)[C@H](O)[C@@H](O)CN1CCCCCCCCn1cc(Cn2nnc3ccccc32)nn1 [Compound 12c] gave pIC50 of < 3.30
